Can you tell me glycan array binding signal (z-score) for the items I'm about to list?
Target: Fuc(a1-2)[GalNAc(a1-3)]Gal(b1-3)GlcNAc(b1-3)GalNAc
Experiment: glycan array binding signal (z-score within array); higher = stronger binding
Conditions: glycan notation: IUPAC condensed, linker removed
The entries come from a sample that favours the strongest signals as a whole.
# respond with the number and nothing more

Asked: Please look up its glycan array binding signal (z-score): Banana lectin (Musa acuminata) (protein) MNGAIKVGAWGGNGGSAFDMGPAYRIISVKIFSGDVVDAVDVTFTYYGKTETRHFGGSGGTPHEIVLQEGEYLVGMKGEFGNYHGVVVVGKLGFSTNKKSYGPFGNTGGTPFSLPIAAGKISGFFGRGGDFIDAIGVYLEP
Given back: -0.188

Asked: Okay, and XCL (Xerocomus chrysenteron) (protein) MSYSITLRVYQTNRDRGYFSIVEKTVWHFANGGTWSEANGAHTLTQGGSGTSGVLRFLSTKGERITVAVGVHNYKRWCDVVTGLKPDETALVINPQYYNNGGRDYVREKQLAEYSVTSAIGTKVEVVYTVAEGNNLEANVIFS ?
Given back: -0.249

Asked: Okay, and GS13455A-bfa-343-25-343 (Bacteroides fragilis) (protein) KDEIQIVDQDTSWQMDNKYIEEDIREQLGIDPFTDLVYLGYYGNPYTQLEAINDLVNTTLVGKNELSFKVKVTKPYKEDIKVNLMKEDKLVTDFPEMAEGIPLFPSENCTFEGGVLKAGELETTVKLTLKDVEKLNNLSGYVMAIKLTMEGSHEHLAIARTRSSYFVKLNLSIRLDNIDSSNKKIEGKGFNKEISFKSDIRPDKLGSLNDGNFTANNWYTSNANNYLTIILPEKQSLKGFRLDTNTSPSGSYMLKSCRVMVETPDGNWVNHGVFDRKSMDGIAYISFKKPVECTKVRFENMMAFNGRFSVDVNEVTAFR ?
Given back: 2.29
